I'd be grateful if you could share measured MIC for these entries.
system: P. aeruginosa ATCC 35151; test: Broth microdilution MIC in CAMHB; type: cell-based; conditions: Pseudomonas aeruginosa, ATCC35151; MHB; hyper-permeable strain; read-out: Minimum Inhibitory Concentration, P. aeruginosa ATCC 35151

Please give the documented MIC of CCN1CCN(C(=O)NC(C(=O)N[C@H]2Cc3cccc(C(=O)O)c3OB2O)c2cc(F)c(O)cc2Cl)C(=O)C1=O (stereo partly drawn) [Example 103] 2 to 4 µg/mL

Please give the documented MIC of NCCCN1CCN(C(=O)N[C@@H](C(=O)N[C@H]2Cc3cccc(C(=O)O)c3OB2O)c2ccc(O)c(F)c2F)C(=O)C1=O (single isomer, unassigned) [Example 238] < 0.25 µg/mL

Please give the documented MIC of C[C@H]1CN(CCN)C(=O)C(=O)N1C(=O)N[C@@H](C(=O)N[C@H]1Cc2cccc(C(=O)O)c2OB1O)c1ncc(O)cc1F [Example 14] 0.5 to 1 µg/mL

Please give the documented MIC of CCN1CCN(C(=O)NC(C(=O)N[C@H]2Cc3cccc(C(=O)O)c3OB2O)c2ccc(O)c(Cl)c2F)C(=O)C1=O (stereo partly drawn) [Example 185] 0.5 to 1 µg/mL

Please give the documented MIC of CCN1CCN(C(=O)NC(C(=O)N[C@H]2Cc3cccc(C(=O)O)c3OB2O)c2cccc(O)c2)C(=O)C1=O (stereo partly drawn) [Example 68] 0.5 to 1 µg/mL

Please give the documented MIC of CCN1CCN(C(=O)NC(C(=O)N[C@H]2Cc3cccc(C(=O)O)c3OB2O)c2ncc(C(=O)O)cc2F)C(=O)C1=O (stereo partly drawn) [Example 20] 0.5 to 1 µg/mL

----------
system: N. gonorrhoeae H041; experiment: Liquid broth MIC in Fastidious broth; type: cell-based; details: Neisseria gonorrhoeae, H041, read-out: Minimum Inhibitory Concentration, N. gonorrhoeae H041
observable: MIC

Please give the documented MIC of CCN1CCN(C(=O)NC(C(=O)N[C@H]2Cc3cccc(C(=O)O)c3OB2O)c2cccc(N)c2)C(=O)C1=O (stereo partly drawn) [Example 72] > 64 µg/mL

Please give the documented MIC of NCCN1CCN(C(=O)N[C@@H](C(=O)N[C@H]2Cc3cccc(C(=O)O)c3OB2O)c2ccc(O)cc2Cl)C(=O)C1=O (single isomer, unassigned) [Example 86] > 64 µg/mL

Please give the documented MIC of NCCCN1CCN(C(=O)NC(C(=O)N[C@H]2Cc3ccc(F)c(C(=O)O)c3OB2O)c2c(F)cc(O)cc2F)C(=O)C1=O (stereo partly drawn) [Example 178] > 64 µg/mL

----------
system: E. coli D22; assay: Broth microdilution MIC in CAMHB; type: cell-based; settings: Escherichia coli; E. coli D22 (hyper-permeable); MHB; read-out: Minimum Inhibitory Concentration, E. coli D22
observable: MIC

State, for E. coli D22, measured MIC of the molecule listed here: O=C(O)c1cccc2c1OB(O)[C@@H](NC(=O)[C@H](NC(=O)N1CCN(CCF)C(=O)C1=O)c1c(F)cc(O)cc1F)C2 (single isomer, unassigned) 0.5 to 1 µg/mL

State, for E. coli D22, measured MIC of the molecule listed here: CCN1CCN(C(=O)NC(C(=O)N[C@H]2Cc3cccc(C(=O)O)c3OB2O)c2c(F)cc(N)cc2F)C(=O)C1=O (stereo partly shown) 2 to 4 µg/mL

State, for E. coli D22, measured MIC of the molecule listed here: CCN1CCN(C(=O)NC(C(=O)N[C@H]2Cc3cccc(C(=O)O)c3OB2O)c2cccc(CN)c2)C(=O)C1=O (stereo partly shown) 8 to 16 µg/mL

State, for E. coli D22, measured MIC of the molecule listed here: NS(=O)(=O)NC(C(=O)N[C@H]1Cc2cccc(C(=O)O)c2OB1O)c1ccc(C(=O)O)c(F)c1 (stereo partly shown) > 128 µg/mL

State, for E. coli D22, measured MIC of the molecule listed here: CCN1CCN(C(=O)NC(C(=O)N[C@H]2Cc3cccc(C(=O)O)c3OB2O)c2cccc(C(=O)O)c2)C(=O)C1=O (stereo partly shown) 2 to 4 µg/mL

State, for E. coli D22, measured MIC of the molecule listed here: CCN1CCN(C(=O)NC(C(=O)N[C@H]2Cc3cccc(C(=O)O)c3OB2O)c2cccc(NC(=O)c3ccc(O)c(O)c3Cl)c2)C(=O)C1=O (stereo partly shown) 2 to 4 µg/mL

State, for E. coli D22, measured MIC of the molecule listed here: CCN1CCN(C(=O)NC(C(=O)N[C@H]2Cc3cccc(C(=O)O)c3OB2O)c2c(Cl)cc(C(=O)O)cc2Cl)C(=O)C1=O (stereo partly shown) 2 to 4 µg/mL

State, for E. coli D22, measured MIC of the molecule listed here: O=C(O)c1cccc2c1OB(O)[C@@H](NC(=O)C(NC(=O)N1CCNC1=O)c1c(F)cc(O)cc1F)C2 (stereo partly shown) 8 to 16 µg/mL

State, for E. coli D22, measured MIC of the molecule listed here: NCCN1CCN(C(=O)N[C@H](C(=O)N[C@H]2Cc3cccc(C(=O)O)c3OB2O)c2ccc(O)c(F)c2F)C(=O)C1=O (single isomer, unassigned) 32 to 64 µg/mL

State, for E. coli D22, measured MIC of the molecule listed here: NCCN1CCN(C(=O)NC(C(=O)N[C@H]2Cc3ccc(F)c(C(=O)O)c3OB2O)c2nc(N)sc2F)C(=O)C1=O (stereo partly shown) 8 to 16 µg/mL

State, for E. coli D22, measured MIC of the molecule listed here: NCCN1CCN(C(=O)NC(C(=O)N[C@H]2Cc3cccc(C(=O)O)c3OB2O)c2cc(Cl)c(O)cc2F)C(=O)C1=O (stereo partly shown) 2 to 4 µg/mL

State, for E. coli D22, measured MIC of the molecule listed here: CCN1CCN(C(=O)NC(C(=O)N[C@H]2Cc3cccc(C(=O)O)c3OB2O)c2cc(F)c(O)c(F)c2F)C(=O)C1=O (stereo partly shown) 2 to 4 µg/mL

State, for E. coli D22, measured MIC of the molecule listed here: NC1(CN2CCN(C(=O)N[C@@H](C(=O)N[C@H]3Cc4cccc(C(=O)O)c4OB3O)c3c(F)cc(O)cc3F)C(=O)C2=O)CC1 (single isomer, unassigned) 2 to 4 µg/mL
